# Assay Info: in vitro
# Experimental Conditions: human, HepG2 IC50 (cytotoxicity)
Observation Type: pIC50
One number for each entry, as −log10 of the molar value.

Enquiry: I'd like to know its pIC50. The compound in question is `Nc1cc2c(c(F)n1)C(=O)N(C1CCCCC1)C2`
Return: 4.96
